TARGET_ENTITY: FER (Homo sapiens, UniProt P16591)
Construct: purchased Eurofins DiscoverX KINOMEscan (scanTK)
Sequence (P16591 whole entry): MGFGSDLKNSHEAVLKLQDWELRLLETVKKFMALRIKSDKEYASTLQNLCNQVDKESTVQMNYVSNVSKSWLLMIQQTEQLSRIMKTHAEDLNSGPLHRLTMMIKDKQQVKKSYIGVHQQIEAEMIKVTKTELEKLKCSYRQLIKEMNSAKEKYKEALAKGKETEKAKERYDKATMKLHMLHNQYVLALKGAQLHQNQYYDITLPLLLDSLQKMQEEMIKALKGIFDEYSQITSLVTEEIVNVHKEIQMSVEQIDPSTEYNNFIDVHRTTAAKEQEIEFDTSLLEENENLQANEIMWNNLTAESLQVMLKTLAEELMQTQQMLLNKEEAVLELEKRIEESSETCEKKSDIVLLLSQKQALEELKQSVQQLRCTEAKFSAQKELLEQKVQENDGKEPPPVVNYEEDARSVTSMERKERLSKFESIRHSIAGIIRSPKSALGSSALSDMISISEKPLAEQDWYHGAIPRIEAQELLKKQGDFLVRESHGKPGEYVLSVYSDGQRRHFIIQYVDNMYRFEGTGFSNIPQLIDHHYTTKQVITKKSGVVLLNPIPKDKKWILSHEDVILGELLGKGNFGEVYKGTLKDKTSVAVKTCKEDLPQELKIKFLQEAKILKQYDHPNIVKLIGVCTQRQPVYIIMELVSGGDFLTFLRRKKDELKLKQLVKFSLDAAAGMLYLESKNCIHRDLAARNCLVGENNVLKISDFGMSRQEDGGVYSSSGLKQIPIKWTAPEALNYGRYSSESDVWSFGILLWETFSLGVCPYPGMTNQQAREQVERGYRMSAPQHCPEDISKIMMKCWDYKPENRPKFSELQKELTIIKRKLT
ASSAY_COMMENT: KINOMEscan ScanTK
Type: binding
MEASUREMENT_SETUP: @1000nM, read-out: %Control
Could you please report measured remaining binding at 1 µM for the items listed next?
Express your answer in %, writing the number without its unit.

[Q] Need remaining binding at 1 µM of CNC(=O)c1cnc(S(C)(=O)=O)nc1N1CCCC(n2nc(-c3ccc(Oc4ccccc4)cc3)c3c(N)ncnc32)C1 (centres unmarked) , thanks.
[A] 100

[Q] If you can, please state the reported remaining binding at 1 µM value of COC(=O)c1cnc(S(C)(=O)=O)nc1N1CCCC(n2nc(-c3ccc(Oc4ccccc4)cc3)c3c(N)ncnc32)C1 (centres unmarked) .
[A] 90

[Q] Entry C=CC(=O)N1CCC[C@@H](n2nc(-c3ccc(Oc4ccccc4)cc3)c3c(N)ncnc32)C1 [Compound 1g, Ibrutinib, reference compound] has what remaining binding at 1 µM?
[A] 100

[Q] Which remaining binding at 1 µM is reported for this compound? `CCOC(=O)c1cnc(S(C)(=O)=O)nc1N1CCC[C@@H](n2nc(-c3ccc(Oc4ccccc4)cc3)c3c(N)ncnc32)C1`
[A] 100

[Q] Entry Cc1cnc(S(C)(=O)=O)nc1N1CCCC(n2nc(-c3ccc(Oc4ccccc4)cc3)c3c(N)ncnc32)C1 (centres unmarked) : reported remaining binding at 1 µM = ?
[A] 100
